Reference source for all entries: PubChem BioAssay AID2553

- ASSAY_TARGET: Short transient receptor potential channel 6 (Mus musculus) (UniProt Q61143)
- Sequence (Q61143 whole entry, looked up): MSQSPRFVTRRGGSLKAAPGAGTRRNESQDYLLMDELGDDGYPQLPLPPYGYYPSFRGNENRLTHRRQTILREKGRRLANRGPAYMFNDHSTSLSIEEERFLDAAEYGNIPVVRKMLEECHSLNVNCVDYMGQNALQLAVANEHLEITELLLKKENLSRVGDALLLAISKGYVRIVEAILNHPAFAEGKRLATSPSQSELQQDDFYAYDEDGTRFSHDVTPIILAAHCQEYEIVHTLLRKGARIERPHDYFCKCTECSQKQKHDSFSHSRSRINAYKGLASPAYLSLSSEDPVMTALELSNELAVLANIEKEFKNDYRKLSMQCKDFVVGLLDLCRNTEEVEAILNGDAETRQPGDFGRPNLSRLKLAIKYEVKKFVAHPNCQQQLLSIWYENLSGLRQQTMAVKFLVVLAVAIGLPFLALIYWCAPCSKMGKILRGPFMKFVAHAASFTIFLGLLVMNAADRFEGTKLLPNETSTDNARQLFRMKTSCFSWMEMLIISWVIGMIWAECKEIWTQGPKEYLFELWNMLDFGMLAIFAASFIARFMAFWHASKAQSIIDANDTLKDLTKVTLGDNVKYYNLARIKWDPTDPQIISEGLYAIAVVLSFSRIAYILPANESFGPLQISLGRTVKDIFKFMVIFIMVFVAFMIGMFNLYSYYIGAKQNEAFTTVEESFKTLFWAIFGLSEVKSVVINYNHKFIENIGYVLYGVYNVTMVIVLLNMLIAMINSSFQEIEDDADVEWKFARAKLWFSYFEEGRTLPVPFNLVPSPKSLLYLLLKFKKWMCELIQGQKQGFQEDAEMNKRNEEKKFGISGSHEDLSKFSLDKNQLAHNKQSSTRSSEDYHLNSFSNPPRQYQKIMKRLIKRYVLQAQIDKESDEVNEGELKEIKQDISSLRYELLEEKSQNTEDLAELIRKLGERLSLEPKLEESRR
- ASSAY_PROTOCOL: mouse TRPC6 channel inhibitors, primary screen, cell-based, HEK293, membrane potential dye (AID 2553)
- ASSAY_CONTEXT: ACh-evoked depolarization, at 10 µM
About 3,300 (1.1%) of roughly 310,000 compounds were called active.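 Rule for the calls: active = B-score under library mean minus 3 SD, initial fluorescence not abnormally high, positive integrated signal ratio; inactive = the rest.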 For the sample, actives were picked, then their nearest neighbours and some compounds at random.
Answer with one of the outcomes active, inactive

[in] I'd appreciate the recorded outcome for C=C(C)c1cccc(C(C)(C)NC(=O)N2CCN(c3ncccn3)CC2)c1 from this test.
[out] inactive

[in] I'd appreciate the recorded outcome for Nc1ccc(C(=O)N2CCN(S(=O)(=O)c3ccc(Cl)cc3)CC2)cc1[N+](=O)[O-] from this test.
[out] active

***
[in] I'd appreciate the recorded outcome for CC(C)(C)c1cc(CN2CCN(CCC#N)CC2)cc(C(C)(C)C)c1O from this test.
[out] inactive

[in] I'd appreciate the recorded outcome for COc1ccc(S(=O)(=O)NNC(=O)Nc2ccc(C)cc2)c(OC)c1 from this test.
[out] inactive

====

- ASSAY_TARGET: Short transient receptor potential channel 6 (Mus musculus)
- ASSAY_PROTOCOL: mouse TRPC6 channel inhibitors, primary screen, cell-based, HEK293, membrane potential dye (AID 2553)
- ASSAY_CONTEXT: ACh-evoked depolarization, at 10 µM
In all, about 310,000 compounds went through this assay and about 3,300 (1.1%) were called active.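 How the source made its calls: active means B-score under library mean minus 3 SD, initial fluorescence not abnormally high, positive integrated signal ratio; inactive means the rest.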 The sample as a whole holds a higher share of actives than the screen did.
Answer with one of the outcomes true for active, false for inactive

[in] I'd appreciate the recorded outcome for CCOC(=O)N1CCC(O)(c2cc(C)c(C)cc2C)CC1 from this test.
[out] true

***
[in] I'd appreciate the recorded outcome for COc1ccc2c(C)cc3nnnn3c2c1 from this test.
[out] false

[in] I'd appreciate the recorded outcome for NC(=O)COc1ccc(/C=N/NC(=O)C2CCCN2S(=O)(=O)c2ccc(Cl)cc2)cc1 (stereo not given) from this test.
[out] false

[in] I'd appreciate the recorded outcome for Cc1ccccc1-n1nc(C)c2c1N=C1C(Cl)=CC(Cl)=CN1C2c1ccc(C(=O)O)cc1 (stereo not given) from this test.
[out] false

[in] I'd appreciate the recorded outcome for CCOC(=O)N1CCC(N2Cc3cccc(C(=O)Nc4ccc(S(=O)(=O)N(CC)CC)cc4)c3C2=O)CC1 from this test.
[out] false

====

- ASSAY_TARGET: Short transient receptor potential channel 6 (Mus musculus) (UniProt Q61143)
- ASSAY_PROTOCOL: mouse TRPC6 channel inhibitors, primary screen, cell-based, HEK293, membrane potential dye (AID 2553)
- ASSAY_CONTEXT: ACh-evoked depolarization, at 10 µM
Hit rate of the full screen: of about 310,000 compounds, about 3,300 (1.1%) were called active.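 Rule for the calls: active = B-score under library mean minus 3 SD, initial fluorescence not abnormally high, positive integrated signal ratio; inactive = the rest.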 This excerpt belongs to a sample that is enriched for actives.
Answer with one of the outcomes True for active, False for inactive

Examples with answers:
[in] I'd appreciate the recorded outcome for CN1CCN(c2ccc(NC(=O)c3ccccc3)cc2)CC1 from this test.
[out] False

[in] I'd appreciate the recorded outcome for CC(=O)N1CCC(N(C(=O)Nc2ccc(Cl)cc2)C(C)C)CC1 from this test.
[out] False

[in] I'd appreciate the recorded outcome for Cc1cccc(-c2nc(Nc3ccc(O)cc3)c3ccccc3n2)c1 from this test.
[out] False

***
[in] I'd appreciate the recorded outcome for Cc1ccc(C(=O)Oc2ccc(C(=S)N3CCOCC3)cc2)cc1 from this test.
[out] False

[in] I'd appreciate the recorded outcome for CCOC(=O)c1sc2nc(CSCC(=O)OCc3ccc(C(=O)OC)o3)[nH]c(=O)c2c1C from this test.
[out] True

[in] I'd appreciate the recorded outcome for CN1CCN(c2nc(Nc3ccc(O)cc3)nc3ccccc23)CC1 from this test.
[out] True
